# TESTED_ON: Oxytocin receptor (Homo sapiens) (UniProt P30559)
# Sequence (P30559 whole entry, looked up): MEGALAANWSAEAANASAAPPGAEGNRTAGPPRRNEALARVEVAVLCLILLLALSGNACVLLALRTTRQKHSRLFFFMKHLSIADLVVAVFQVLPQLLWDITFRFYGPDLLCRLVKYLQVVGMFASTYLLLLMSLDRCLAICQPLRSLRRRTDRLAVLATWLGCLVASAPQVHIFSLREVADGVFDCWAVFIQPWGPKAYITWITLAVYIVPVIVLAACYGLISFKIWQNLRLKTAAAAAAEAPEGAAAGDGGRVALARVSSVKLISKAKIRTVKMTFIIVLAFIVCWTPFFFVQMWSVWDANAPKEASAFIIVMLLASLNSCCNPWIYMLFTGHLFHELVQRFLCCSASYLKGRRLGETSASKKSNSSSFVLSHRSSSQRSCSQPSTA
# TEST: oxytocin receptor activation by calcium flux – fluorescence, CHO-OTR cells, Fluo-8 calcium, primary screen (AID 2435);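 also: peak over basal fluorescence ratio from a 100 s FLIPR kinetic read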
# EXPERIMENTAL_CONTEXT: Fluo-8 calcium fluorescence, at 3 µM, hits give high values, normalized: DMSO 0%, oxytocin 100%
In all, about 320,000 compounds went through this assay and about 1,000 (0.31%) were called active. The sample as a whole holds a higher share of actives than the screen did.
Quick reference for activation among some compounds
Write the number in % without appending the unit.

Entry CC(Oc1ccc2ccccc2c1)C(=O)NNC(=S)NC(=O)c1ccco1 (stereo not given) under Oxytocin receptor (Homo sapiens) (UniProt P30559) had activation of 33.9

Entry Cc1ccc(OCC(=O)NNC(=S)NCc2ccccc2)cc1 under Oxytocin receptor (Homo sapiens) (UniProt P30559) had activation of -1.15

Entry Cc1cc(N2C(=O)C(O)=C(C(=O)c3ccc(C)o3)C2c2ccc(OCc3ccccc3)cc2)no1 (stereo not given) under Oxytocin receptor (Homo sapiens) (UniProt P30559) had activation of 0.01

Entry Cc1cc(C)c(S(=O)(=O)N2C=CC(C(F)(F)F)=NCC2)c(C)c1 under Oxytocin receptor (Homo sapiens) (UniProt P30559) had activation of 0.69

Entry Cc1ccc(OCC(=O)NCCCNC(=O)c2ccco2)cc1C under Oxytocin receptor (Homo sapiens) (UniProt P30559) had activation of 0.98

* * *

# TESTED_ON: Oxytocin receptor (Homo sapiens)
# TEST: oxytocin receptor activation by calcium flux – fluorescence, CHO-OTR cells, Fluo-8 calcium, primary screen (AID 2435);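 also: peak over basal fluorescence ratio from a 100 s FLIPR kinetic read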
# EXPERIMENTAL_CONTEXT: Fluo-8 calcium fluorescence, at 3 µM, normalized: DMSO 0%, oxytocin 100%
In all, about 320,000 compounds went through this assay and about 1,000 (0.31%) were called active.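 How the source made its calls: active means activation above the mean of all tested compounds plus 3 SD, cutoff set per screening run (cut at about 20% in these data); inactive means the rest.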 This is one part of a sample in which actives are shown more often than they occur.
// allowed return values: true (1) = active, false (0) = inactive

Consider the following illustrative entries.
MOLECULE	CATEGORY_LABEL
O=c1c2ccccc2nc2n1C(CSc1ccc(Cl)cc1)CN2 (stereo unspecified)	true (1)
O=c1c2ccccc2nc2n1C(CSCc1ccccc1)CS2 (stereo unspecified)	false (0)

Outcome? O=C(CSc1nc2ncccc2[nH]1)Nc1ccc2c(c1)OCCO2
false (0)

Outcome? O=c1c2ccccc2nc2n1C(CSc1ccc(F)cc1)CN2 (stereo unspecified)
false (0)

Outcome? CCc1ccc2c(c1)C1(NN=C(c3ccccc3)S1)C(=O)N2 (stereo unspecified)
false (0)

Outcome? CCn1cc(CCC(=O)NCc2ccc(F)cc2)c2ccccc21
false (0)

* * *

# TESTED_ON: Oxytocin receptor (Homo sapiens)
# TEST: oxytocin receptor activation by calcium flux – fluorescence, CHO-OTR cells, Fluo-8 calcium, primary screen (AID 2435);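 also: peak over basal fluorescence ratio from a 100 s FLIPR kinetic read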
# EXPERIMENTAL_CONTEXT: Fluo-8 calcium fluorescence, at 3 µM, hits give high values, normalized: DMSO 0%, oxytocin 100%
Screen size: about 320,000 compounds; about 1,000 (0.31%) were called active. The sample as a whole holds a higher share of actives than the screen did.
Quick reference for activation among some compounds
Write the number in % without appending the unit.

Cc1oc2nc(SCC(=O)Nc3ccc(S(N)(=O)=O)cc3)nc(NC(=O)c3ccccc3)c2c1C 0.48

Entry Cc1cccn2c(=O)c(/C=C(\C#N)C(N)=O)c(N3CCCCCC3)nc12 under Oxytocin receptor (Homo sapiens) had activation of -2.52

Entry CC(C)C(=O)Nc1cccc(NC(=S)NC(=O)C(c2ccccc2)c2ccccc2)c1 under Oxytocin receptor (Homo sapiens) had activation of 4.03

Entry CCOC(=O)N1CCN(C(=O)CSc2nc(=O)n3cccc(C)c3n2)CC1 under Oxytocin receptor (Homo sapiens) had activation of -0.13

Entry CCNC(=S)NNC(=O)Cc1ccccc1 under Oxytocin receptor (Homo sapiens) had activation of 1.03

* * *

Quick reference for activation among some compounds
# TESTED_ON: Oxytocin receptor (Homo sapiens)
# TEST: oxytocin receptor activation by calcium flux – fluorescence, CHO-OTR cells, Fluo-8 calcium, primary screen (AID 2435);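 also: peak over basal fluorescence ratio from a 100 s FLIPR kinetic read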
# EXPERIMENTAL_CONTEXT: Fluo-8 calcium fluorescence, at 3 µM, hits give high values, normalized: DMSO 0%, oxytocin 100%
Out of some 320,000 compounds screened, about 1,000 (0.31%) were called active. Many of the other results were omitted from the sample, so actives are more common in it than they were.
Write the number in % without appending the unit.

The cases that follow already have their activation on record.
COMPOUND	activation, %
CN(c1ccccc1)c1ccc(/C=c2\s/c(=C(/C#N)C(=O)C(C)(C)C)n(Cc3ccco3)c2=O)cc1	20.3
CN(C)CCCN(C(=O)c1ccc(S(=O)(=O)N2CCCCCC2)cc1)c1nc2cc3c(cc2s1)OCCO3	3.02
CCOc1ccc(C2=CC(c3ccccc3)n3ncnc3N2)cc1 (centres undefined)	-2.25
CC(C)(C)NCC(O)COc1cccc2[nH]c(=O)[nH]c12 (centres undefined)	-0.01
CCN(CC)CCC(c1cc(OC)c(OC)c(OC)c1)c1c(OC)cc(OC)c2c(-c3ccccc3)cc(=O)oc12 (centres undefined)	2.08
Cc1ccc(S(=O)(=O)N2CCN(C(=O)N3CCOCC3)CC2)c(C)c1	0.27
O=C(O)CCn1c(O)c(C=C2N=c3ccccc3=N2)sc1=S	0.13
CC1(C)Oc2ccc3ccc(=O)oc3c2/C(=N/O)C1=O	-0.3
COCCNC(=O)NC(=O)COC(=O)C1(c2ccc(Cl)cc2)CC1	-1.47
CC(C)[C@H](NC(=O)N1CCn2c1nc1ccccc12)C(=O)NCc1ccc2c(c1)OCO2	-1.49

Turning now to a further record.
Please fill in: activation reported for Cc1cc(C)cc(OCC(=O)NC(C)c2ccccc2)c1 (centres undefined) = -2.21

* * *

# TESTED_ON: Oxytocin receptor (Homo sapiens)
# TEST: oxytocin receptor activation by calcium flux – fluorescence, CHO-OTR cells, Fluo-8 calcium, primary screen (AID 2435);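 also: peak over basal fluorescence ratio from a 100 s FLIPR kinetic read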
# EXPERIMENTAL_CONTEXT: Fluo-8 calcium fluorescence, at 3 µM, hits give high values, normalized: DMSO 0%, oxytocin 100%
Out of some 320,000 compounds screened, about 1,000 (0.31%) were called active. The entries come from a sample that favours actives as a whole.
Quick reference for activation among some molecules
Write the number in % without appending the unit.

The cases that follow already have their activation on record.
MOLECULE	TESTED_ON	activation / %
Cc1ccc(S(=O)(=O)N(C)C)cc1NC(=O)C1Cc2ccccc2CN1C(=O)c1ccco1 (stereo not drawn)	Oxytocin receptor (Homo sapiens)	-0.61
O=C(CN1C(=O)NC2(CCCCC2)C1=O)NCCc1c[nH]c2ccccc12	Oxytocin receptor (Homo sapiens)	0.26
COc1ccc(CNC(=O)CCC(=O)Nc2nnc(C(C)C)s2)cc1	Oxytocin receptor (Homo sapiens)	-0.01
CCOc1cc(-c2cc(-c3ccc(NC(C)=O)cc3)nc(N)c2C#N)ccc1O	Oxytocin receptor (Homo sapiens)	1.58
O=C(NCc1ccccc1Cl)C1CCN(c2ncnc3c2nc2n3CCCCC2)CC1	Oxytocin receptor (Homo sapiens)	0.32

Please fill in: activation reported for Cc1nc(CN2CCN(C(=O)CCc3nnc(Cc4c[nH]c5ccccc45)o3)CC2)cs1 = -0.27

Please fill in: activation reported for Cc1ccc2c(c1)N(CC(=O)N1CCCc3ccccc31)C(=O)C(C)O2 (stereo not drawn) = -1.51

Please fill in: activation reported for C#CCOCCOCCOCCNc1nc(N2CCN(C(=O)C([C@@H](C)CC)n3cc(C(N)COC(=O)C(F)(F)F)nn3)CC2)nc(N2CCN(C(=O)[C@H](Cc3ccc(O)cc3)n3cc(C(N)[C@H](C)CC)nn3)CC2)n1 (stereo partly drawn) = 0.32

Please fill in: activation reported for O=c1[nH][nH]c(C(F)(F)F)c1C=NCc1ccccc1Cl = 1.38

Please fill in: activation reported for COc1ccc(N2CCC(N3CCN(C)C(CCO)C3)CC2)cc1 (stereo not drawn) = -0.23

Please fill in: activation reported for CCOc1cc(/C=C(\C#N)c2nc(-c3cccs3)c(NC(C)=O)s2)ccc1O = 23.4

Please fill in: activation reported for O=C(NCc1ccncc1)C(=O)NCC1OCCN1S(=O)(=O)c1ccc(Br)cc1 (stereo not drawn) = 0.38

Please fill in: activation reported for COc1cc(/C=C(\C#N)c2nc3c(s2)CC(C)CC3)ccc1O (stereo not drawn) = 12.7

* * *

# TESTED_ON: Oxytocin receptor (Homo sapiens)
# TEST: oxytocin receptor activation by calcium flux – fluorescence, CHO-OTR cells, Fluo-8 calcium, primary screen (AID 2435);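 also: peak over basal fluorescence ratio from a 100 s FLIPR kinetic read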
# EXPERIMENTAL_CONTEXT: Fluo-8 calcium fluorescence, at 3 µM, hits give high values, normalized: DMSO 0%, oxytocin 100%
Among all 320,000 compounds or so, about 1,000 (0.31%) were called active. The entries come from a sample that favours actives as a whole.
VALUE_TYPE: activation

MOLECULE	activation
Cc1cc2nc3n(c2cc1C)CC1CC(C(=O)NCCC(C)C)N(C)C31 (centres undefined)	0.52% (inactive)
C=CCSc1nc(N)cc(=O)[nH]1	0.06% (inactive)
Cc1cccc(OCCC(=O)Nc2cc(S(=O)(=O)N3CCCCC3)ccc2N2CCOCC2)c1	-0.97% (inactive)

Please fill in: activation reported for COc1ccc(NS(=O)(=O)c2ccc(Oc3c(C#N)cccc3C#N)cc2)cc1 = 21.2% (active)
